Experiment: protease stability score; higher = more stable; yeast display proteolysis, trypsin and chymotrypsin;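 further: relative to predicted unfolded state with 0 unfolded-like and 1 meaning tenfold more protease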

[
  {
    "item-sequence": "DEEEEEMHRRARIFLELWMTGNEEVFNTLFDPNVRLHMNIGEKTHDFVGRETVHEVNRRWLEHIRIEDFKVREIRVQGDYATSDTRIVGIFDGRRIDIDVKIHILIVDGRLKEVELRFD",
    "protease stability score": 2.1
  },
  {
    "item-sequence": "SEDERWLELLSRLLIEATRTGDWRELRHMLDPNVQLSFDGVQLHGRETIIEFLRHEERRLGVKHIDLHDRRIEYFDGRVILESELIIHYGDKEHRSEVRVYANKVNGRWFIEHIEIG",
    "protease stability score": 2.13
  },
  {
    "item-sequence": "DESEESMRHALEEIIESMVTGDEDRLRELADPNVRSKVNGRDIHGWKVVSKLVKELRIRDVKVEDKDREVQGEWMYFHGLFRIDGEFDGRRVDLELDLTIIAHKVNGRWVIRMFKYR",
    "protease stability score": 1.63
  },
  {
    "item-sequence": "SEEKEIAERIVRELLYAYHTGDEQLFNHLADPHVRIHIGEFHKVGREHWEELHRWLDNHLRIHRFFFRDVEVQGEKVHIHVRTNTIIGDKRIDTNLLFFILVVNGKIKHMEVREI",
    "protease stability score": 1.81
  },
  {
    "item-sequence": "DEDEEDAHRAVQKLTEVINTGDWETFEKFADPNTRFEYGNFHIHGREVIRHFWLHEVEKFKNITIFIRHVQVINGRVESHGENRFNGKSYHFHIIFRKFNGRWHLERIHLE",
    "protease stability score": 1.61
  }
]

Sourced from the NTF2 design screens of Basanta et al. (2020)
